Attribution: patent US5656603A

Experimental Target: purified bovine lung membrane-bound aminopeptidase P (Bos taurus)
Measured Parameter: Ki (µM)
// units = µM; emit number, no label

Item C[C@H](NC(=O)[C@@H]1CCCN1C(=O)[C@@H]1CCCN1C(=O)[C@@H](O)[C@H](N)Cc1ccccc1)C(N)=O with purified bovine lung membrane-bound aminopeptidase P (Bos taurus) - Ki?
7.8

###

Experimental Target: aminopeptidase A (EC 3.4.11.7) (Rattus norvegicus, UniProt P50123)
Sequence (P50123 whole entry): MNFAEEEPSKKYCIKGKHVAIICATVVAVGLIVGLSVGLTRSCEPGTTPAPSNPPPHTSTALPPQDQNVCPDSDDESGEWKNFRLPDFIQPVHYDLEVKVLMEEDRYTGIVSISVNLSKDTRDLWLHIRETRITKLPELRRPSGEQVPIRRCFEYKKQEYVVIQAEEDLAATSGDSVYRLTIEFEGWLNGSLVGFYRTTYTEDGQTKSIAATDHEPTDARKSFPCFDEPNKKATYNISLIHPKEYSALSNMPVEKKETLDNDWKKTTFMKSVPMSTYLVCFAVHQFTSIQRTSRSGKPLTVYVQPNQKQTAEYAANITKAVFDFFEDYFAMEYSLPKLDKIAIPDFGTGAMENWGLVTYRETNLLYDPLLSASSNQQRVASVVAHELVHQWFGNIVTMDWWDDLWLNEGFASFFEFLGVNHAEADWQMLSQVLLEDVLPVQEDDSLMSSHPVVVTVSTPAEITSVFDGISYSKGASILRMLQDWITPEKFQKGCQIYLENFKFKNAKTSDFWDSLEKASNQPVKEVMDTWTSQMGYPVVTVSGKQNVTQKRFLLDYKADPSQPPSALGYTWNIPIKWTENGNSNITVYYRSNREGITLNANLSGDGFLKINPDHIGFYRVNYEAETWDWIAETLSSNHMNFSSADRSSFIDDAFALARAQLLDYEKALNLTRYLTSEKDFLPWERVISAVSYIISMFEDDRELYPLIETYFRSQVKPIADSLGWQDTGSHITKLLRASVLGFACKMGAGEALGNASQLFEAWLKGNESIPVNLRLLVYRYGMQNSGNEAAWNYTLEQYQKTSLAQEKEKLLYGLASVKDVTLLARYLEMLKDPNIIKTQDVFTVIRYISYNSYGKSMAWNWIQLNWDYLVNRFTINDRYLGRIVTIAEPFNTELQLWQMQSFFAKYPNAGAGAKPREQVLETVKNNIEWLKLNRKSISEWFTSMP
Measured Parameter: IC50

Test system aminopeptidase A (EC 3.4.11.7) (Rattus norvegicus, UniProt P50123); read-out IC50; what value for C[C@H](NC(=O)[C@@H]1CCCN1C(=O)[C@@H]1CCCN1C(=O)[C@@H](O)[C@H](N)Cc1ccccc1)C(N)=O ?
> 800 µM

###

Experimental Target: prolyl oligopeptidase (Ovis aries, UniProt A0ACI6PCU6)
Sequence (A0ACI6PCU6 entry or part of it): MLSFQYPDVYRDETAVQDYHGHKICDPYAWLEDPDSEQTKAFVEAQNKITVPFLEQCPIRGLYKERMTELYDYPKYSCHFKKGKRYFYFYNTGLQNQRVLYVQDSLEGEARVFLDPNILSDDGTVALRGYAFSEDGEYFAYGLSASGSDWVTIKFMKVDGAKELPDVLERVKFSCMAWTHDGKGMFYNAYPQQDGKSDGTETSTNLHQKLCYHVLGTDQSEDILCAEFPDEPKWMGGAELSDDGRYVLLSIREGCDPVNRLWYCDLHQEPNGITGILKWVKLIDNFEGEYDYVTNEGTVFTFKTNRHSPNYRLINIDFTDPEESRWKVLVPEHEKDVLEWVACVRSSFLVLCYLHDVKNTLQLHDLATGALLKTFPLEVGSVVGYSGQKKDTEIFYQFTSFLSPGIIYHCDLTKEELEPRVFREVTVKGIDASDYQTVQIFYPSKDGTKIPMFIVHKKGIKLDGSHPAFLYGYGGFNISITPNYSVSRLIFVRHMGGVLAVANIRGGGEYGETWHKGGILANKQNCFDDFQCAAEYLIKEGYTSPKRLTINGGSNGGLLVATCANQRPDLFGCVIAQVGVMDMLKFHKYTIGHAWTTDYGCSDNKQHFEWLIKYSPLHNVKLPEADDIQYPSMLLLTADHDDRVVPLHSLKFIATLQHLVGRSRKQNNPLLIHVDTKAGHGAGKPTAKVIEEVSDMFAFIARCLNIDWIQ
pIC50: −log10 of the molar value.
Measured Parameter: pIC50

Can you look up the measured pIC50 of C[C@H](NC(=O)[C@@H]1CCCN1C(=O)[C@@H]1CCCN1C(=O)[C@@H](O)[C@H](N)Cc1ccccc1)C(N)=O [apstatin] for me?
< 3.10

###

Experimental Target: recombinant E. coli aminopeptidase P (Escherichia coli, UniProt P15034)
Construct: supplied by Dr. Tadashi Yoshimoto (Nagasaki University)
Sequence (P15034 whole entry): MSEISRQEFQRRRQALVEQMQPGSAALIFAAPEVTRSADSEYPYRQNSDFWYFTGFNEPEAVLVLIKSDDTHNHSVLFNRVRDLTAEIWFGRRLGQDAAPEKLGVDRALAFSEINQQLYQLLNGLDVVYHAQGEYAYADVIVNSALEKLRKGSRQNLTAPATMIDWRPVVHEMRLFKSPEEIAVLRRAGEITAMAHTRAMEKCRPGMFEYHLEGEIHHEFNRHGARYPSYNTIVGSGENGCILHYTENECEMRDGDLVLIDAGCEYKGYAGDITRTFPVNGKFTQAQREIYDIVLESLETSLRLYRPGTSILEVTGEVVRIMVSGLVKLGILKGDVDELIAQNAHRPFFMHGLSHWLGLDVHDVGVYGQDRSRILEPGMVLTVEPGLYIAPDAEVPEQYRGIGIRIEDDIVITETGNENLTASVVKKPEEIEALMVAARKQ
Method Summary: Aminopeptidase P inhibition, release of arginine from Arg-Pro-Pro (fluorescent assay)
Condition: E. coli, recombinant; substrate Arg-Pro-Pro, 0.1 M Hepes pH 8.0, 39° C.
Measured Parameter: pKi
FYI, pKi means -log10 of a concentration in mol per litre.

Requested read-out pKi, target or system recombinant E. coli aminopeptidase P (Escherichia coli, UniProt P15034), entry C[C@H](NC(=O)[C@@H]1CCCN1C(=O)[C@@H]1CCCN1C(=O)[C@@H](O)[C@H](N)Cc1ccccc1)C(N)=O [apstatin]
4.85

###

Experimental Target: purified rat lung membrane-bound aminopeptidase P (Rattus norvegicus, UniProt Q99MA2)
Sequence (Q99MA2 23-674): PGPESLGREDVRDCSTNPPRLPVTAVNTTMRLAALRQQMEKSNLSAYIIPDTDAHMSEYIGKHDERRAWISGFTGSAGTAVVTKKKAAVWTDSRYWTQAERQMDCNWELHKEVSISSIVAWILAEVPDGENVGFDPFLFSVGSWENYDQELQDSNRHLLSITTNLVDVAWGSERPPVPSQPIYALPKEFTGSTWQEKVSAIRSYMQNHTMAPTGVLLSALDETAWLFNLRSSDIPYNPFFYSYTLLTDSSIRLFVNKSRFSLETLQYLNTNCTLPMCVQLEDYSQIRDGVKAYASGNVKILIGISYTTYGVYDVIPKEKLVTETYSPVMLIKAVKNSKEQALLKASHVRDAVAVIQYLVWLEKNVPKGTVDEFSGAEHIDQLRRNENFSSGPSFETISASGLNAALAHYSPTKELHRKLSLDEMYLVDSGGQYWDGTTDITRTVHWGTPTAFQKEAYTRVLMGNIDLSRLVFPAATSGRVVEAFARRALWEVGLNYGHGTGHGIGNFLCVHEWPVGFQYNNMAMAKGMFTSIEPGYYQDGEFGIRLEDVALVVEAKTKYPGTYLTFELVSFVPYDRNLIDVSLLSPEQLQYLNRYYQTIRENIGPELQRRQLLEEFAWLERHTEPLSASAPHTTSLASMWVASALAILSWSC
Measured Parameter: Ki (nM)
Supply the numeric figure in nM, leaving out any unit text.

Please report the recorded Ki for C[C@H](NC(=O)[C@@H]1CCCN1C(=O)[C@@H]1CCCN1C(=O)[C@@H](O)[C@H](N)Cc1ccccc1)C(N)=O .
2600

###

Experimental Target: purified bovine lung membrane-bound aminopeptidase P (Bos taurus)
Sequence (E1B735 22-673): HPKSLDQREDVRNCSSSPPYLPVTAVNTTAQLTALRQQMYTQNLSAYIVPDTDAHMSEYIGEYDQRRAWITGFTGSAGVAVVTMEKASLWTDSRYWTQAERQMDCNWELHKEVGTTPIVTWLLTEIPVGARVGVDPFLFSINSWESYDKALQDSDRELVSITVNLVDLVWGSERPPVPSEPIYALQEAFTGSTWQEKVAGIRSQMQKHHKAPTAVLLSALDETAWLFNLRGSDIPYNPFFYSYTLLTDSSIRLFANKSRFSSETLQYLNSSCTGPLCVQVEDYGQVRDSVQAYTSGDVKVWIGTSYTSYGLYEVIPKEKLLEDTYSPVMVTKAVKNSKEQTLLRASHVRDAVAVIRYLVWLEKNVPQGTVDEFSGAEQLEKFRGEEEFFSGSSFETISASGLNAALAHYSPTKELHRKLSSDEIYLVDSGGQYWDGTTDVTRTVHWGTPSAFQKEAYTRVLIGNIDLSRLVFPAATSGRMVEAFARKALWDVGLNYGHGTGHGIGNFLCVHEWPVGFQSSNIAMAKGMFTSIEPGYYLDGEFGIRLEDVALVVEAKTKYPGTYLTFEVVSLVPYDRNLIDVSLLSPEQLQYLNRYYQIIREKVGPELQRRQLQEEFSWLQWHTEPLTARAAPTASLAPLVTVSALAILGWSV
Measured Parameter: pIC50
Just the number, please; pIC50 means minus log10 of the concentration in mol/L.

Quick one: pIC50 for C[C@H](NC(=O)[C@@H]1CCCN1C(=O)[C@@H]1CCCN1C(=O)[C@@H](O)[C@H](N)Cc1ccccc1)C(N)=O [apstatin] ?
5.03
